- Measured target: Estrogen receptor beta (Homo sapiens) (UniProt Q92731)
- Sequence (Q92731 whole entry, looked up, the tested form may be a part): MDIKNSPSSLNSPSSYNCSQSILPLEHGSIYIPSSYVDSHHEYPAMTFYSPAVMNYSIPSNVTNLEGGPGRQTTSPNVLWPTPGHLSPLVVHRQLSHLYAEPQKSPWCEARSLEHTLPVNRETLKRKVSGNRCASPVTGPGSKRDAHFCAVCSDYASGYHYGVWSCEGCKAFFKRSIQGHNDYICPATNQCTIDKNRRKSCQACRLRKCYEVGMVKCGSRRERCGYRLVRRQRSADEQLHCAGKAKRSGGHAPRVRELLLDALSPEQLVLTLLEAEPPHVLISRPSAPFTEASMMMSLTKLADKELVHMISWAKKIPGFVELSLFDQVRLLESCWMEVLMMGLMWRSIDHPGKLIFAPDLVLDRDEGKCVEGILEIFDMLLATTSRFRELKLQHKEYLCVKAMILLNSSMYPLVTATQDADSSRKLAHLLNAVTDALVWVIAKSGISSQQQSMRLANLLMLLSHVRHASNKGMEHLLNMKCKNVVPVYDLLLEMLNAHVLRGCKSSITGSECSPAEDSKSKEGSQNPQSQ
- Assay remarks: OT_ER_ERbERb_1440: Odyssey Thera (OT) 24-hour HEK293T Protein-Complementation Assay for Estrogen Receptor-beta/-beta Homodimer (AID 2283380);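 note: fluorescence gain from ER beta LBD homodimer complementation read by laser scanning cytometry; scored as signal increase over DMSO baseline for both agonists and antagonists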
Calls of active or inactive are those of the source. Rule for the calls: active = hit-call score of the fitted dose curve at least 0.9, where 1 is the maximum; inconclusive = response in the unintended direction; inactive = score below 0.9.
Outcomes: yes (1) = active, no (0) = inactive

Compound	Discrete label
CCCCCCCCCCCCCCCCOS(=O)(=O)O	no (0)
CC(C)C(=O)Nc1ccc([N+](=O)[O-])c(C(F)(F)F)c1	no (0)
CC(C)c1nnc2ccc(-c3ocnc3-c3cc(F)ccc3F)cn12	no (0)
Cc1ccc(S(=O)(=O)NC(=O)NN2CCCCCC2)cc1	no (0)
OCCOCCOCCO	no (0)
OC(Cn1cncn1)(Cn1cncn1)c1ccc(F)cc1F	no (0)
O=S1(=O)CCCO1	yes (1)
c1ccc2c(c1)-c1cccc3c1c-2cc1ccccc13	no (0)
CCOc1ccc2[nH]cc(C(=O)NCc3ccccc3)c(=O)c2n1	no (0)
NC(N)=O	no (0)
CCn1nc(C)c2c1C(=O)NCC(c1ccc(O)cc1)=N2	no (0)
Cc1ncc([C@@H](CCCCCCc2ccc3c(n2)NCCC3)CC(=O)O)cn1	no (0)
C=CCc1cc(S(=O)(=O)c2ccc(O)c(CC=C)c2)ccc1O	no (0)
CC(C)CCCCCCOC(=O)C1CCCCC1C(=O)OCCCCCCC(C)C (stereo not given)	no (0)
NC(=O)NN=Cc1ccc([N+](=O)[O-])o1	no (0)
O=C(O)c1ccc2c(c1)nc(C(=O)NC1CCN(C3CC3)CC1)n2Cc1cc(-c2ccc(Cl)s2)on1	no (0)
c1ccc2cc3ccccc3cc2c1	no (0)
CCCCCCCC1CCC(=O)O1 (stereo not given)	no (0)
CCCCCCCCCCCCCCO	no (0)
NC(=O)N(O)[C@@H]1COc2cc(OCc3ccccc3)ccc21	no (0)
Cc1nccn1-c1ccc(Sc2cccc(C3(C(N)=O)CCOCC3)c2)cc1	yes (1)
CC[C@H](C)C(=O)O[C@H]1C[C@H](O)C=C2C=C[C@H](C)[C@H](CC[C@@H](O)C[C@@H](O)CC(=O)O)[C@H]21	no (0)
COc1cc2c(c(OC)c1OC)-c1ccc(OC)c(=O)cc1[C@@H](NC(C)=O)CC2	no (0)
CCc1cccc(CC)c1N	no (0)
Cc1nc(-c2ccccn2)ncc1C(=O)Nn1cc(C)c2cc(F)ccc21	no (0)
OCc1ccccc1	no (0)
CCCCN1C(=O)[C@@H]([C@H](O)C2CCCCC2)NC(=O)C12CCN(Cc1ccc(Oc3ccc(C(=O)O)cc3)cc1)CC2	no (0)
OC[C@H]1O[C@@](CO)(O[C@H]2O[C@H](CO)[C@@H](O)[C@H](O)[C@H]2O)[C@@H](O)[C@@H]1O	no (0)
CCCc1ccccc1	no (0)
C[C@@H](Oc1ccc(CNC(=O)c2cccnc2Oc2ccc3c(c2)OCO3)c(F)c1)C(=O)O	no (0)
OCC(CO)(CO)CO	no (0)
OC[C@H]1O[C@@H]2O[C@H]3[C@H](O)[C@@H](O)[C@@H](O[C@H]4[C@H](O)[C@@H](O)[C@@H](O[C@H]5[C@H](O)[C@@H](O)[C@@H](O[C@H]6[C@H](O)[C@@H](O)[C@@H](O[C@H]7[C@H](O)[C@@H](O)[C@@H](O[C@H]1[C@H](O)[C@H]2O)O[C@@H]7CO)O[C@@H]6CO)O[C@@H]5CO)O[C@@H]4CO)O[C@@H]3CO	no (0)
CCCOc1ccc(S(=O)(=O)N2CCN(CC)CC2)cc1-c1nc2c(CC)n(Cc3ccccn3)nc2c(=O)[nH]1	no (0)
CC(C)CC(C)O (stereo not given)	no (0)
Cc1cccc(O)c1C	no (0)
